Consider the following compounds; for each one, report its cytotoxic effect, CEM.
Test system: human CEM T4 lymphocytes
Experiment: Cytotoxic effect on CEM T4 lymphocytes
Format: cell-based
Set-up: unit not given beside the values
Settings: Tables 5 and 7, CEM cells

Per the records, this compound ( CCCCSS[C@H]1C[C@H](n2cc(C)c(=O)[nH]c2=O)O[C@@H]1CO [Compound 24, 3′-deoxythymidin-3′-yl butyl disulfide] ) has cytotoxic effect, CEM equal to 44 ± 1

Memo: Cc1cn([C@H]2C[C@H](SSc3ccc([N+](=O)[O-])cc3)[C@@H](CO)O2)c(=O)[nH]c1=O [Compound 25] , reported cytotoxic effect, CEM: 34 ± 0

cytotoxic effect, CEM in this record for O=c1ccn([C@@H]2O[C@H](CO)C=C2SSc2ccccc2[N+](=O)[O-])c(=O)[nH]1 [Compound 17] : 40 ± 4

The value of cytotoxic effect, CEM measured for the compound Cc1cn([C@H]2CC(SSCCCCCCO)[C@@H](CO)O2)c(=O)[nH]c1=O (stereo partly shown) [Compound 18] turned out to be 187 ± 1

Just so you know, measured cytotoxic effect, CEM for Cc1cn(C2OC(CO)C=C2SSc2ccccc2[N+](=O)[O-])c(=O)[nH]c1=O (stereo not shown) [Compound 15] came out at 28 ± 0

For Cc1cn([C@H]2C[C@H](SSCCO)[C@@H](CO)O2)c(=O)[nH]c1=O [Compound 21] the compound record lists cytotoxic effect, CEM as 347 ± 71

In plain terms, Cc1cn([C@H]2C[C@H](SSCCN)[C@@H](CO)O2)c(=O)[nH]c1=O.Cl [Compound 27] has a documented cytotoxic effect, CEM of 437 ± 71

* * *

Exercise: for every item that follows, state its recorded cytotoxic effect, Molt4/C8.
Test system: human Molt4/C8 cells
Experiment: Cytotoxic effect on Molt4/C8 cells
Format: cell-based
Conditions: Tables 5 and 7, Molt4/C8 cells

Entry Cc1cn(C2OC(CO)C=C2SSc2ccccc2[N+](=O)[O-])c(=O)[nH]c1=O (centres unmarked) under human Molt4/C8 cells had cytotoxic effect, Molt4/C8 of 30 ± 15

Entry Cc1cn([C@H]2C[C@H](SSc3ccc([N+](=O)[O-])cc3)[C@@H](CO)O2)c(=O)[nH]c1=O , human Molt4/C8 cells data, cytotoxic effect, Molt4/C8 value: 29 ± 2

Bench note, human Molt4/C8 cells: Cc1cn([C@H]2C[C@H](SSCCO)[C@@H](CO)O2)c(=O)[nH]c1=O , cytotoxic effect, Molt4/C8 reads 128 ± 33

Readout cytotoxic effect, Molt4/C8 for Cc1cn([C@H]2CC(SSCCCCCCO)[C@@H](CO)O2)c(=O)[nH]c1=O (some centres unmarked) , test system human Molt4/C8 cells, was 66 ± 9

Here C=CCSS[C@H]1C[C@H](n2cc(C)c(=O)[nH]c2=O)O[C@@H]1CO [Compound 20, 3′-deoxythymidin-3′-yl allyl disulfide] was tested on human Molt4/C8 cells, and its cytotoxic effect, Molt4/C8 came to 34 ± 6

* * *

Tested on: human CEM cells
Assay: Cytotoxicity (MTT) on CEM cells
Assay type: cell-based
Conditions: Homo sapiens, CCRF-CEM, read-out: CC50 CEM
ASSAY READOUT: CC50 (µM)
// units = µM; emit number, no label

Lab note: compound Cc1cn([C@@H]2O[C@H](CO)C=C2SCC[Si](C)(C)C)c(=O)[nH]c1=O tested on human CEM cells; recorded CC50 was 13

Tested on human CEM cells: Cc1cn([C@H]2C=C(SCC[Si](C)(C)C)[C@@H](CO)O2)c(=O)[nH]c1=O . Observed CC50: 82
